target: stromelysin (MMP-3) (Homo sapiens, UniProt P08254); construct: enzymatic activity of the catalytic domains of human stromelysin and of neutrophil collagenase; assay: Enzymatic activity of the catalytic domain of human stromelysin (fluorogenic substrate); conditions: pH=6.5, 15 min preincubation, fluorescence 328 nm (ex)/393 nm (em)
Sequence (P08254 100-272 limits assumed): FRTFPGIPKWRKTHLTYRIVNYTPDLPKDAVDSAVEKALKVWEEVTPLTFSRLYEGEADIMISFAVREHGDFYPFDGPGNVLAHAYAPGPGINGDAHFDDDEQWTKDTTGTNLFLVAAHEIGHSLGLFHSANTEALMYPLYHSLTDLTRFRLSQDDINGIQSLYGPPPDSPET
REPORTED_PROPERTY: IC50 (nM)

Before answering, review these 3 worked examples.
Measured IC50 of COc1ccc(NC(=O)CC[C@H](NS(=O)(=O)c2ccc(-c3ccccc3)cc2)C(=O)O)cc1 [Example 89] : 300

Measured IC50 of NC(=O)CC[C@H](NC(=O)CC[C@H](NS(=O)(=O)c1ccc(-c2ccccc2)cc1)C(=O)O)C(=O)O [Example 95] : 300

Measured IC50 of CS(=O)(=O)CC[C@H](NS(=O)(=O)c1ccc(-c2ccc(Cl)cc2)cc1)C(=O)O [Example 17] : 100

A: O=C(CC[C@H](NS(=O)(=O)c1ccc(-c2ccccc2)cc1)C(=O)O)Nc1ccc(C(F)(F)F)cc1 [Example 85]
B: O=C(O)[C@@H](CCO)NS(=O)(=O)c1ccc(Oc2ccccc2)cc1 (racemic) [Example 1, N-(Phenoxybenzenesulfonyl) homoserine]
C: Br.CN(C)c1ccc(-c2ccc(S(=O)(=O)N[C@@H](CC(=O)O)C(=O)O)cc2)cc1 [Example 40]
D: CC(=O)Nc1ccc(NC(=O)CC[C@H](NS(=O)(=O)c2ccc(-c3ccccc3)cc2)C(=O)O)cc1 [Example 99]
E: O=C(O)CNS(=O)(=O)c1ccc(Oc2ccc(Cl)cc2)cc1 [Example 3]
Challenge: Give the ascending ranking of the items by reported IC50. The response must list the labels following the requested ordering.
Response given: C, B, D, A, E
(C: 70 nM, B: 400 nM, D: 700 nM, A: 3000 nM, E: 20000 nM)

P: O=C(O)C(CSC1=NCCS1)NS(=O)(=O)c1ccc(-c2ccc(Cl)cc2)cc1 (racemic) [Example 19]
Q: O=C(O)C(NS(=O)(=O)c1ccc(-c2ccc(Cl)cc2)cc1)C(O)c1ccccc1 (stereo not shown) [Example 34]
R: O=C(O)C(CCc1c[nH]c2ccccc12)NS(=O)(=O)c1ccc(-c2ccc(Cl)cc2)cc1 (racemic) [Example 105]
Challenge: Order these by IC50, descending, and give the full ranking. The response must list the labels following the requested ordering.
Response given: P, Q, R

P: O=C(CC[C@H](NS(=O)(=O)c1ccc(-c2ccccc2)cc1)C(=O)O)Nc1ccc(F)c(Cl)c1 [Example 96]
Q: O=C(O)C(NS(=O)(=O)c1ccc(-c2ccc(Cl)cc2)cc1)c1ccsc1 (racemic) [Example 26]
Challenge: Between the entries labeled P and Q , whose measured IC50 is lower? Label of pick, please.
Response given: Q
(Q: 400 nM, P: 600 nM)

A: CSCC[C@@H](NS(=O)(=O)c1ccc(-c2ccc(Cl)cc2)cc1)C(=O)O [Example 10]
B: O=C(CC[C@H](NS(=O)(=O)c1ccc(-c2ccccc2)cc1)C(=O)O)N[C@@H](Cc1ccccc1)C(=O)O [Example 92]
Challenge: Between the entries labeled A and B , whose measured IC50 is lower? Label of pick, please.
Response given: B
